# System Under Test: chymotrypsin-like activity of the proteasome (Homo sapiens)
# Construct: endogenous in cells
# Sequence (P28074 60-263): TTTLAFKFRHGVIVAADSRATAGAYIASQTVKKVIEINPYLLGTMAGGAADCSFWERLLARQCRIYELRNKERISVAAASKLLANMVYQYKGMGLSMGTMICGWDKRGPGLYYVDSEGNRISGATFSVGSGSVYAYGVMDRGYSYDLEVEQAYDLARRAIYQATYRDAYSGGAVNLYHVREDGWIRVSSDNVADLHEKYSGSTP
# Procedure Text: Cell-based chymotrypsin-like proteasomal activity assay in L444P GC cells
pIC50: −log10 of the molar value.

# Molecule, System Under Test, pIC50
rows = [
    ("CC1=C(O)C(=O)C=C2C1=CC=C1[C@@]2(C)CC[C@@]2(C)[C@@H]3C[C@](C)(C(=O)O)CC[C@]3(C)CC[C@]12C [celastrol]", "chymotrypsin-like activity of the proteasome (Homo sapiens)", 4.76),
]
